tested on: RPMI-8226 leukemia; test: NCI tumour cell line growth inhibition, 48 h
valueKind: TGI

| molecule | valueKind | measValue |
| --- | --- | --- |
| C=C[C@H]1CN2CC[C@H]1C[C@@H]2[C@@H](O)c1ccnc2ccccc12 | TGI | 90 µM |
| Cc1cc2occ(C)c(=O)c2c2c1OC(C)(C)S2 | TGI | > 100 µM |
| Nc1nc(N)c2ncn(CC(CO)CC(c3ccccc3)P(=O)(O)O)c2n1 (stereo not drawn) | TGI | > 100 µM |

----------
system: ACHN renal; test: NCI tumour cell line growth inhibition, 48 h
Where a SMILES comes first, the peptide text is derived from it. The star is where a group is joined. Boc = CC(C)(C)OC(=O)*

| compound | TGI |
| --- | --- |
| Cn1c2ccccc2n2c3nc4ccccc4nc3c(C#N)c12 | > 100 µM |
| Cc1nnc2c3c(-c4ccccc4)c(-c4ccccc4)oc3nc(N(C)C)n12 | > 100 µM |
| Clc1ccc(OCc2nnc(CCCCCCCCc3nnc(COc4ccc(Cl)cc4Cl)o3)o2)c(Cl)c1 | > 100 µM |
| CO[P@]1(=O)O[C@@H](c2ccccc2)[C@H](O)[C@]1(O)c1ccccc1 | > 100 µM |
| COc1ccc([N+](=O)[O-])c2c(NCC(O)CO)ccnc12 (stereo not drawn) | > 100 µM |
| c1cncc(C2c3[nH]c4ccccc4c3CCN2CCN2CCCCC2)c1 (stereo not drawn) | > 100 µM |
| COc1cc(C2c3cc4c(cc3OC(N3CCOCC3)C2C)OCO4)cc(OC)c1O (stereo not drawn) | > 74.9 µM |
| O=C1/C(=C/c2cccs2)N=C(c2ccccc2)N1C1Nc2cc3c(cc2S1)NC(N1C(=O)/C(=C/c2cccs2)N=C1c1ccccc1)S3 (stereo not drawn) | > 100 µM |
| Cc1c2cc[n+](C)cc2c(C)c2c1[nH]c1ccccc12 | > 100 µM |
| Cn1cnc([N+](=O)[O-])c1Sc1ncnc2nc[nH]c12 | > 100 µM |
| CCOC(=O)/C=C(/C(=O)OCC)n1cc(C)c(=O)n(Cc2cnnn2CCCCOC(C)=O)c1=O | 23.9 µM |
| O=C1Cc2c(-c3ccccc3)cc(-c3cccc(Cl)c3)nc2-c2ccccc2N1 | 5.63 µM |
| C=C(CNCCO)[C@@H]1CC[C@]2(CO)CC[C@]3(C)[C@H](CC[C@@H]4[C@@]5(C)CCC(NCCc6ccc(O)cc6)C(C)(C)[C@@H]5CC[C@]43C)[C@@H]12 (stereo partly drawn) | 3.08 µM |
| O=C1CSC2(CCN(CCCN3c4ccccc4Sc4ccc(Cl)cc43)CC2)N1 | 23.7 µM |
| c1c[nH]c(Cc2ncc(Cc3cnc[nH]3)[nH]2)n1 | 51.5 µM |
| C/C(=N/O)c1cccc(Nc2nc3ccccc3c3[nH]c4ccccc4c23)c1 | 7.17 µM |
| N#C/C(=C(\O)C(=O)O)c1ccc(-c2cccc3ccccc23)cc1 | > 100 µM |
| CC1CC[C@]2(C(=O)O)CCC3(C)C(=C2[C@H]1C)C=CC1[C@@]2(C)CC[C@H](O)C(C)(C)C2CC[C@]13C (stereo partly drawn) | 48.2 µM |
| CCCCCC(C)C[C@H]1CO[C@H](c2ccc[nH]2)N[C@H]1C(=O)OC (stereo partly drawn) | > 100 µM |
| c1cc2c(cnc3cscc32)s1 | > 100 µM |
| CCN(CC)CC(C)Nc1ccc(C)c2sc3ccccc3c(=O)c12 (stereo not drawn) | 15.1 µM |
| CCCN(CCC)c1c([N+](=O)[O-])cc(S(N)(=O)=O)cc1[N+](=O)[O-] | 31.8 µM |
| O=C1CC(c2cccc(Cl)c2)n2cccc21 (stereo not drawn) | > 100 µM |
| CC(NC(=O)C(NC(=O)OC(C)(C)C)C(C)C)C(=O)NCC(=O)O (stereo not drawn) (Boc-Val-Ala-Gly-OH; configuration not given here) | > 100 µM |
| CN(C)CCOc1ccc(-c2c(Oc3ccc(Cl)cc3)c(=O)oc3ccccc23)cc1 | > 48.5 µM |
| CC(SC1=CC(=O)c2c(O)ccc(O)c2C1=O)C(=O)O (stereo not drawn) | > 64.1 µM |
| Cn1c(N/N=C/c2ccc(Cl)cc2)nc(-c2ccc(Cl)cc2)c(C#N)c1=O | > 100 µM |
| C=C[C@H]1CN2CC[C@H]1C[C@@H]2[C@@H](O)c1ccnc2ccccc12 | > 100 µM |

----------
system: OVCAR-4 ovarian; assay: NCI tumour cell line growth inhibition, 48 h
Entries and their TGI

| compound | TGI |
| --- | --- |
| Cc1ccc(-n2c(C)nc3c2C(=O)c2ccccc2C3=O)cc1 | > 100 µM |
| Cc1ccc(-c2cc3nc(-c4ccccc4)nc(C(Cl)Cl)n3n2)cc1 | 1.73 µM |
| COC(=O)/C(=N/NC(C)(C)C)C(C(=O)C=C(C)C)C(=O)C(=O)Nc1ccc(Cl)cc1C (stereo not given) | > 100 µM |
| [Cl][Sn]([c]1ccccc1)[c]1ccccc1 | 29.8 µM |
| O=C(Nc1ccc(Br)cc1)c1cc(Br)cc(Br)c1O | > 100 µM |
| Cc1cc(O)cc(C)c1/C=C/c1cncc(C(=O)N(C)C)c1 | > 25 µM |
| O=C(/C=C/c1ccc([N+](=O)[O-])o1)NNC(=O)c1cc2ccccc2cc1O | > 100 µM |
| N#CC(c1ccccc1)c1cccc2ccccc12 (stereo not given) | > 100 µM |
| Cc1c(C(=O)CC(=O)C(=O)NC2C3CC4CC(C3)CC2C4)[n+](=O)c2ccccc2n1[O-] (stereo not given) | > 100 µM |
| COc1cccc2c(=O)c3c(sc12)c(NCCCN)nc1ccccc13 | 3.64 µM |
| O=[N+]([O-])C(=C(NCc1ccccc1)NCc1ccccc1)C(Cl)=C(Cl)Cl | > 100 µM |
| CCc1cccc(C)c1NC(=O)CC1Sc2ccccc2NC1=O (stereo not given) | > 100 µM |
| O=C(N/N=C/c1ccc(F)cc1)c1[nH]c2ccc(I)cc2c1-c1ccccc1 | > 87.4 µM |
| COc1ccc2c(C3(O)CCNCC3)c[nH]c2c1 | > 100 µM |
| Nc1cc(CO)cc(Nc2c3ccccc3nc3occc23)c1 | 54.5 µM |
| Clc1ccc(-c2nc(-c3ccc(Cl)cc3)[s+]s2)cc1 | 98.9 µM |
| O=C(CSC1=NCCN1)c1ccccc1 | > 100 µM |
| O=C(O)c1nnsc1COCc1ccccc1 | > 100 µM |
| c1cc2c(cnc3cscc32)s1 | > 100 µM |
| c1cc(-c2sc(-c3ccncc3)c(-c3ccncc3)c2-c2ccncc2)ccn1 | > 100 µM |
| CC1=C(C#N)S(=O)(=O)c2c(oc(C)c2C)N1 | > 100 µM |
| O=C(CSc1nc2ccc(I)cc2c(=O)n1Cc1ccccc1)Nc1ccc(Br)cc1 | > 100 µM |
| O=C1c2cccc3cc([N+](=O)[O-])cc(c23)C(=O)N1CCCN1CCN(CCCN2C(=O)c3cccc4cc([N+](=O)[O-])cc(c34)C2=O)CC1 | 5.96 µM |
| COc1ccc(N=C/C=C/Nc2ccc(OC)cc2)cc1 | 9.99 µM |
| c1ccc2c(NCCCCCCCCNc3c4ccccc4nc4ccccc34)c3ccccc3nc2c1 | 2.41 µM |

----------
test system: MALME-3M melanoma; test: NCI tumour cell line growth inhibition, 48 h

| compound | TGI |
| --- | --- |
| Cn1cc(NC(=O)c2cc(NC(=O)CCCCCC(=O)Nc3cc(C(=O)Nc4cc(C(=O)NCCC(=N)N)n(C)c4)n(C)c3)cn2C)cc1C(=O)NCCC(=N)N | > 100 µM |
| O=c1oc2c3ccc4ccccc4c3n(Cc3nc4ccccc4[nH]3)c2c2ccccc12 | > 100 µM |
| CN(C)CCCOC(=O)C(O)(Cc1ccccc1)C1CC1 (stereo not drawn) | > 100 µM |
| COc1cccc(C2c3cc4c(cc3OC(N3CCOCC3)C2C)OCO4)c1O (stereo not drawn) | > 78.6 µM |
| CC1=CC[C@@H]2C(C)(C)[C@@H](O)CC[C@@]2(C)[C@@H]1COc1ccc2ccc(=O)oc2c1 | 22.4 µM |
| O=C1CSC2(CCN(CCCN3c4ccccc4Sc4ccc(Cl)cc43)CC2)N1 | 24.4 µM |
| Cc1ccc(S(=O)(=O)NCCN2c3nc4ccccc4cc3Sc3cc4ccccc4nc32)cc1 | > 100 µM |
| NS(=O)(=O)c1ccc(/C=C/c2cccc(O)c2)cc1 | > 100 µM |
| COC(=O)c1ccc2c(c1)c1c(C)c3cnccc3c(C)c1n2C | 0.314 µM |
| CC(=O)O/C(C)=C\C(=O)O/N=C(\N)c1ccc(C)cc1 | 71.5 µM |
| NNC(=O)c1ccccc1NC(=O)/C(=C/c1ccccc1)NC(=O)c1ccccc1 | > 100 µM |
| C=C(CNCCO)[C@@H]1CC[C@]2(CO)CC[C@]3(C)[C@H](CC[C@@H]4[C@@]5(C)CCC(NCCc6ccc(O)cc6)C(C)(C)[C@@H]5CC[C@]43C)[C@@H]12 (stereo partly drawn) | 3.13 µM |
| c1ccc2c(c1)SC1Sc3ccccc3[S+]21 (stereo not drawn) | 15.5 µM |
| CN(C)c1ccc(/C=N/NC2=N/C(=C\c3ccco3)C(=O)N2)cc1 | > 100 µM |
| O=C1NC(=O)C(c2ccccc2Cl)=C1Nc1cccc(O)c1 | > 25 µM |
| [Cl][Sn]([c]1ccccc1)[c]1ccccc1 | 4.66 µM |
| COC1C(O)=C2C(=O)OC(C)(O)/C=C/C=C\C=C/C=C/C(c3ccccc3)NC(=O)/C=C/C=C/C=C/C=C/C2(C)C1O (stereo not drawn) | 0.16 µM |
| Cn1c2ccccc2n2c3nc4ccccc4nc3c(C#N)c12 | > 100 µM |
